Hey, just so you know, these numbers are from patent US12115147B2.

protocol-description: OS2 (OPTISAFE2), OPTISAFE formulation with antioxidants
condition-set: Table 7A; repeat 3, with antioxidants; predicted GHS class
readout-kind: OS2 R3

Field: example entries. Status: answers known.
{"compound": "O=P(O)(OCc1ccccc1)OCc1ccccc1 [Dibenzyl phosphate]", "OS2 R3": 1}
{"compound": "O=C=Nc1ccc(Cl)c(Cl)c1 [3,4-Dichlorophenyl isocyanate]", "OS2 R3": 1}
{"compound": "O=C(O)CCSSCCC(=O)O", "OS2 R3": 1}

Now for the compound whose OS2 R3 we want.
Query CCCOCC(C)O (stereo not shown) yields OS2 R3 of 2

----------
Consider the following compounds and their measured OS2 Score AVG readings.
condition-set: pH 6.36
Enter the number alone.

Query CCCCCCCCCCCC yields OS2 Score AVG of 3.0

Query CCOC(C)=O [Ethyl acetate] yields OS2 Score AVG of 25.6

Query CC(O)CC(C)O (stereo not shown) yields OS2 Score AVG of 10.2

Query CCC(O)C(C)(C)C (stereo not shown) yields OS2 Score AVG of 15.1

----------
Consider the following compounds and their measured OS2 R1 readings.
protocol-description: OS2 (OPTISAFE2), OPTISAFE formulation with antioxidants
condition-set: Table 7B; repeat 1, with antioxidants; predicted GHS class
Enter the number alone.

Field: example entries. Status: answers known.
{"compound": "CCN(CC)C(=O)c1cccc(C)c1 [n,n-Diethyl-m-toluamide]", "readout-kind": "OS2 R1", "measured-value": 1}
{"compound": "O.O.O.O.[Na+].[O-]B1OO1 [Sodium perborate tetrahydrate]", "readout-kind": "OS2 R1", "measured-value": 1}
{"compound": "CC(C=O)Cc1ccc(C(C)(C)C)cc1 (centres unmarked)", "readout-kind": "OS2 R1", "measured-value": 1}

Query O=C1CCCO1 yields OS2 R1 of 2

Query c1ccc(OP(Oc2ccccc2)Oc2ccccc2)cc1 yields OS2 R1 of 1

Query CC(C)(O)CCC(C)(C)O yields OS2 R1 of 2

Query CCOC(=O)C(C)C(C)=O (centres unmarked) [Ethyl-2-methyl acetoacetate] yields OS2 R1 of 1

Query C=CCO yields OS2 R1 of 1

Query CC(C)=O yields OS2 R1 of 2

----------
Consider the following compounds and their measured OS2 R3 readings.
condition-set: pH 6.36
Enter the number alone.

Field: example entries. Status: answers known.
{"compound": "CCCCC(CC)COC(=O)CC(C(=O)OCC(CC)CCCC)S(=O)(=O)[O-].[Na+] (stereo not drawn)", "OS2 R3": 2}
{"compound": "C=C1C2CCC(C2)C1(C)C (stereo not drawn)", "OS2 R3": 2}

Query CCOCCOCC yields OS2 R3 of 2

Query CC(C)CO yields OS2 R3 of 1

Query Cc1ccc(C=S)cc1 yields OS2 R3 of 1

Query OCc1cccc(Oc2ccccc2)c1 yields OS2 R3 of 2

----------
Consider the following compounds and their measured OS2 Cons readings.
condition-set: pH 6.36
Enter the number alone.

Field: example entries. Status: answers known.
{"compound": "OC1CCCC1 [Cyclopentanol]", "OS2 Cons": 1}
{"compound": "CC(=O)CC(=O)OC(C)C [Isopropyl acetoacetate]", "OS2 Cons": 1}

Query CC(C)O [Isopropanol] yields OS2 Cons of 2

Query CC(C)C=O [Isobutyraldehyde] yields OS2 Cons of 1

Query CCOCCOCC [Ethylene glycol diethyl ether] yields OS2 Cons of 2

Query CCCCCCCCCCCC(=O)O [Lauric acid] yields OS2 Cons of 1

Query Cc1ccc(C=S)cc1 [p-Methyl thiobenzaldehyde] yields OS2 Cons of 1

Query COC(C)=O [Methyl acetate] yields OS2 Cons of 2

Query CC(C)CO [Isobutanol] yields OS2 Cons of 1

Query COC(=O)CC#N [Methyl cyanoacetate] yields OS2 Cons of 1

Query CCOC(C)=O [Ethyl acetate] yields OS2 Cons of 2

Query C=C(C)C(=O)OCCOCC [2-Ethoxyethyl methacrylate] yields OS2 Cons of 2

Query CCCCC(CC)COC(=O)CC(C(=O)OCC(CC)CCCC)S(=O)(=O)[O-].[Na+] (stereo not shown) yields OS2 Cons of 2

Query C=C1C2CCC(C2)C1(C)C (stereo not shown) [Camphene] yields OS2 Cons of 2

Query CCCC(C)CO (stereo not shown) [2-Methyl-1-pentanol] yields OS2 Cons of 2

Query CCCCCCO [n-Hexanol] yields OS2 Cons of 2

Query CCCCCCCCO [n-Octanol] yields OS2 Cons of 2

Query O=C(Cl)c1c(Cl)cccc1Cl [2,6-Dichlorobenzoyl chloride] yields OS2 Cons of 1

Query OCc1cccc(Oc2ccccc2)c1 [3-Phenoxybenzyl alcohol] yields OS2 Cons of 2
